Measured EC50, listed per entry for reference.
target: human GLP-1 receptor (Homo sapiens, UniProt P43220); construct: expressed in transfected cells; experiment: GLP-1R cAMP Assay; format: cell-based; details: cAMP accumulation in CHO cells stably overexpressing the human GLP-1 receptor; 30 min treatment; HitHunter cAMP kit; read-out: EC50
Sequence (P43220 24-463): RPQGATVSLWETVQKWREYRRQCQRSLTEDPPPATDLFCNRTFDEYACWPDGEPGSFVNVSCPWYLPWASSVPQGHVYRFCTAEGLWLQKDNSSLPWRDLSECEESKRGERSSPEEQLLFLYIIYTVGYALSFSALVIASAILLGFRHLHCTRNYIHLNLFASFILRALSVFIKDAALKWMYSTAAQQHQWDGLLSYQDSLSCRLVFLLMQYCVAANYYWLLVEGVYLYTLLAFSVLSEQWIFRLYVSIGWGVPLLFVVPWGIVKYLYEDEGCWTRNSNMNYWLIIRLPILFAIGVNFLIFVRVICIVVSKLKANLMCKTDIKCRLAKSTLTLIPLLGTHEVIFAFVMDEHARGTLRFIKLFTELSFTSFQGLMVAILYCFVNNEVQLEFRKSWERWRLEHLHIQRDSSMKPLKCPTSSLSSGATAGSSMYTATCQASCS

molecule	tested_system	reported
N#Cc1cc(F)ccc1OCc1nccc(OC2CCN(Cc3nc4c(F)cc(C(=O)O)cc4n3C[C@@H]3CCO3)CC2)n1 [Compound 307]	human GLP-1 receptor (Homo sapiens, UniProt P43220)	< 50 nM
C[C@H]1C[C@@H](Oc2cccc(COc3ccc(C#N)cc3F)c2)CCN1Cc1nc2c(F)cc(C(=O)O)cc2n1C[C@@H]1CCO1 [Compound 320]	human GLP-1 receptor (Homo sapiens, UniProt P43220)	< 50 nM
CCn1cncc1Cn1c(CN2CCC(C(F)(F)c3cccc(COc4ccc(C)cc4Cl)c3)CC2)nc2ccc(C(=O)O)cc21 [Example 132]	human GLP-1 receptor (Homo sapiens, UniProt P43220)	< 50 nM
N#CCC1(Cn2c(CN3CCC(Oc4ccnc(COc5ccc(Cl)cc5Cl)n4)CC3)nc3ccc(C(=O)O)cc32)CC1 [Compound 340]	human GLP-1 receptor (Homo sapiens, UniProt P43220)	< 50 nM
CCn1cncc1Cn1c(CN2CCN(C(=O)c3cccc(OCc4ccc(C#N)cc4F)c3)CC2)nc2ccc(C(=O)O)cc21 [Compound 67]	human GLP-1 receptor (Homo sapiens, UniProt P43220)	> 500 nM
C[C@H]1C[C@@H](Oc2ccnc(COc3ccc(C#N)cc3F)n2)CCN1Cc1nc2ncc(C(=O)O)cc2n1C[C@@H]1CCO1 [Compound 513]	human GLP-1 receptor (Homo sapiens, UniProt P43220)	< 50 nM

// moving on: another record for EC50
Param readout= EC50; system= human GLP-1 receptor (Homo sapiens, UniProt P43220); entry= CCn1cncc1Cn1c(CN2CCC(Oc3cccc(COc4ncc(Cl)cc4F)c3)CC2)nc2ccc(C(=O)O)cc21 [Compound 294] ; returns value.
50 to 500 nM

* * *

target: human GLP-1 receptor (Homo sapiens); construct: expressed in transfected cells; experiment: GLP-1R cAMP Assay; type: cell-based; conditions: cAMP accumulation in CHO cells stably overexpressing the human GLP-1 receptor; 30 min treatment; HitHunter cAMP kit; read-out: EC50
pEC50: −log10 of the molar value.
measurement_label: pEC50

A selection of reference data follows.
N#Cc1cc(Cl)ccc1OCc1cc(OC2CCN(Cc3nc4ccc(C(=O)O)cc4n3Cc3cnco3)CC2)ccn1 > 7.30
N#Cc1ccc(COc2cccc(C(=O)N3CCN(Cc4nc5ccc(C(=O)O)cc5n4C[C@@H]4CCO4)CC3)c2)c(F)c1 < 6.30
CCn1cncc1Cn1c(CN2CCC(Oc3cccc(COc4ccc(Cl)cc4Cl)c3)CC2)nc2ccc(C(=O)O)cc21 > 7.30
N#Cc1cc(Cl)ccc1OCc1cccc(CC2CCN(Cc3nc4ccc(C(=O)O)cc4n3Cc3ncco3)CC2)c1 > 7.30

Requested read-out: pEC50. Entry: C[C@H]1C[C@@H](Oc2ccnc(COc3ccc(F)cc3F)n2)CCN1Cc1nc2ccc(C(=O)O)cc2n1C[C@@H]1CCO1
> 7.30

Try Cc1ccc(OCc2ccc(C(=O)N3CCN(Cc4nc5ccc(C(=O)O)cc5n4C[C@@H]4CCO4)CC3)o2)c(Cl)c1 next.
< 6.30

And for O=C(O)c1cc(F)c2nc(CN3CCC(Oc4ccnc(COc5ccc(F)cc5Cl)n4)CC3)n(C[C@@H]3CCO3)c2c1 ?
> 7.30
